pIC50 values, listed per item
system.under.test: UniProt P36222
Sequence (P36222 22-383): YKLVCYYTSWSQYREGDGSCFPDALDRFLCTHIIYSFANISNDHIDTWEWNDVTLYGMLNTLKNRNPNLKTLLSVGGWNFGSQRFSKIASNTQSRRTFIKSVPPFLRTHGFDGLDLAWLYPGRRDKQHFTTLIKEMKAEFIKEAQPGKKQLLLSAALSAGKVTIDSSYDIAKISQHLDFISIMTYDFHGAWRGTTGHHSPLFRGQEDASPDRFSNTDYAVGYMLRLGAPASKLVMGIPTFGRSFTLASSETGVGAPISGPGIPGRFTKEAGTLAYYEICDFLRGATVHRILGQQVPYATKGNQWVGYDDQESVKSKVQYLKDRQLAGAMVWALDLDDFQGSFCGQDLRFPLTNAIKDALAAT
assay.remarks: YKL-40:4 assay, competitive chitin binding site AlphaScreen
condition.notes: competition with biotinylated compound 4 (20 nM), YKL-40-histag 2.5 nM
pIC50: −log10 of the molar value. Counter-ions that a name gives are not always drawn.
recorded.metric: pIC50

compound	recorded.result
C[C@H]1CN(C2CCN(c3ncccc3Cl)CC2)[C@@H](Cc2ccc(Cl)cc2)CO1 [Example 23, 2,2,2-trifluoroacetate]	5.00 to 6.00
C[C@@H](O)CN1C[C@H](Cc2ccc(Cl)cc2)N(C2CCN(c3ccccn3)CC2)C[C@@H]1C [compound 102, 2,2,2-trifluoroacetate]	6.00 to 7.00
C[C@H]1CN(C2CCN(c3nncs3)CC2)[C@@H](Cc2ccc(Cl)cc2)CO1 [compound 181, 2,2,2-trifluoroacetate]	< 4.00
C[C@H]1CN(C2CCN(c3ncccc3C(F)(F)F)CC2)[C@@H](Cc2ccc(Cl)cc2)CO1 [compound 49, 2,2,2-trifluoroacetate]	4.00 to 5.00
CN1C[C@H](Cc2ccc(Cl)cc2)N(C2CCN(c3ccccn3)CC2)CC12CCC2 [compound 148, hydrochloride]	6.00 to 7.00
C[C@H]1CN(C2CCN(c3cc(=O)[nH]cn3)CC2)[C@@H](Cc2ccc(Cl)cc2)CO1 [compound 167, 2,2,2-trifluoroacetate]	< 4.00
Clc1ccc(C[C@H]2CN3CCOC[C@H]3CN2C2CCN(c3ccccn3)CC2)cc1 [compound 155, hydrochloride]	> 7.00
C[C@H]1CN(C2CCN(c3ccccc3F)CC2)[C@@H](Cc2ccc(Cl)cc2)CO1 [compound 126, 2,2,2-trifluoroacetate]	< 4.00
COc1cccnc1N1CCC(N2C[C@H](C)OC[C@@H]2Cc2ccc(Cl)cc2)CC1 [compound 162, 2,2,2-trifluoroacetate]	< 4.00
CN(C)C(=O)OC[C@H]1CN(C2CCN(c3ncccn3)CC2)[C@@H](Cc2ccc(Cl)cc2)CO1 [compound 70, 2,2,2-trifluoroacetate]	5.00 to 6.00
O=C1COC[C@H](Cc2ccc(Cl)cc2)N1C1CCN(c2ccccn2)CC1 [compound 147, hydrochloride]	< 4.00
Cc1ccnc(N2CCC(N3C[C@@H]4C[C@@H](O)CN4C[C@@H]3Cc3ccc(Cl)cc3)CC2)n1 [Example 41]	6.00 to 7.00
C[C@H]1CN(C2CCN(c3cc(C(F)(F)F)ccn3)CC2)[C@@H](Cc2ccc(Cl)cc2)CO1 [Example 20, 2,2,2-trifluoroacetate]	5.00 to 6.00
O=C1CNC(=O)N1C[C@H]1CN(C2CCN(c3ncccn3)CC2)[C@@H](Cc2ccc(Cl)cc2)CO1 [compound 78, 2,2,2-trifluoroacetate]	5.00 to 6.00
O=C1c2ccccc2C(=O)N1C[C@H]1CN(C2CCN(c3ncccn3)CC2)[C@@H](Cc2ccc(Cl)cc2)CO1 [compound 76, dihydrochloride]	< 4.00
CC1CC(N2C[C@H](C)OC[C@@H]2Cc2ccc(Cl)cc2)CCN1c1cc(Cl)ccn1 (single isomer, unassigned) [Example 32, 2,2,2-trifluoroacetate]	> 7.00
COc1ncnc(N2CCC(N3C[C@H](C)OC[C@@H]3Cc3ccc(Cl)cc3)CC2)n1 [compound 171, 2,2,2-trifluoroacetate]	< 4.00
C[C@H]1CN(C2CCN(c3ccc(C#N)cn3)CC2)[C@@H](Cc2ccc(Cl)cc2)CO1 [Example 19, 2,2,2-trifluoroacetate]	< 4.00
O[C@@H]1CCN(C[C@H]2CN(C3CCN(c4ncccn4)CC3)[C@@H](Cc3ccc(Cl)cc3)CO2)C1 [compound 73, 2,2,2-trifluoroacetate]	5.00 to 6.00
C[C@H]1CN(C2CCN(c3ccccc3)CC2)[C@@H](Cc2ccc(Cl)cc2)CO1 [Example 37, dihydrochloride]	< 4.00
COCCOCCOCCOCCOCCOCCOCCOCCOCCOCCOCCOCCC(=O)OC[C@H]1CN(C2CCN(c3ccccn3)CC2)[C@@H](Cc2ccc(Cl)cc2)CO1 [Example 7, 2,2,2-trifluoroacetate]	6.00 to 7.00
Cc1ccnc(N2CCC(N3C[C@H](C)OC[C@@H]3Cc3ccc(Cl)cc3)CC2)c1C#N [compound 47, 2,2,2-trifluoroacetate]	6.00 to 7.00
CC(C)c1nc(N2CCC(N3C[C@H](C)OC[C@@H]3Cc3ccc(Cl)cc3)CC2)no1 [compound 163, 2,2,2-trifluoroacetate]	< 4.00
CN1C[C@H](Cc2ccc(Cl)cc2)N(C2CCN(c3ccccn3)CC2)C[C@@H]1Cc1ccc(Cl)cc1 [compound 63, 2,2,2-trifluoroacetate]	5.00 to 6.00
C[C@H]1CN(C2CCN(c3ccccn3)CC2)[C@@H](Cc2ccc(Cl)cc2)CN1CC(=O)NC1CC1 [compound 103, 2,2,2-trifluoroacetate]	6.00 to 7.00
